Where these numbers come from: patent US11186592B2

- Test system: human A3 receptor (Homo sapiens, UniProt P0DMS8)
- Construct: expressed in transfected cells; host or cells: CHO
- Sequence (P0DMS8 1-318): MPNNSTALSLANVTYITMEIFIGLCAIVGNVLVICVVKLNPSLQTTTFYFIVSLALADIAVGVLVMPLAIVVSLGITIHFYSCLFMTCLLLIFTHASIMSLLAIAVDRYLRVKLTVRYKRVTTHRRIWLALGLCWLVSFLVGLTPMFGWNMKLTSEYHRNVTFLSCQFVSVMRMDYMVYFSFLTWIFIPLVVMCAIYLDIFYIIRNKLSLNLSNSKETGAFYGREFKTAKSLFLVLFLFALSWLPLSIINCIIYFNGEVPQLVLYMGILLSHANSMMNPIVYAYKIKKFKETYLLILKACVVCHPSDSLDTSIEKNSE
- Experimental details: cAMP (HTRF) functional assay, recombinant CHO cells expressing human A3 receptor, forskolin + agonist IB-MECA
- Assay type: cell-based
Measurement name: IC50

QUERY: Give the measured IC50 of `COc1nc(Cl)c(-c2ccccc2)c2sc(NC(=O)N3CCC4(CCOCC4)C3)nc12` .
RESULT: > 1000 nM

Continuing:
QUERY: Give the measured IC50 of `COc1ncc(C2CCOCC2)c2sc(NC(=O)c3cnc(N)s3)nc12` .
RESULT: < 1000 nM

QUERY: Give the measured IC50 of `COc1ncc(N2CCOCC2)c2sc(NC(=O)N3CC[C@]4(CCOC4)C3)nc12` .
RESULT: > 1000 nM

QUERY: Give the measured IC50 of `COc1ccccc1-c1cnc(OC)c2nc(NC(=O)N3CCC4(CCOCC4)C3)sc12` .
RESULT: > 1000 nM

====

Below, each entry is listed alongside its reported IC50.
- Test system: mouse Pan T cells
- Experimental details: Rescue of cytokine (IL-2, IFN-γ) secretion in CD3/CD28-stimulated mouse Pan T cells inhibited by A2A agonist CGS-21680
- Format: cell-based
- Assay setup: Mus musculus, T-cell; IFN-γ rescue in supernatant after 48 h, CGS-21680 1 μM, BALB/c Pan T cells; read-out: Mouse IFN-γ
Field: numeric (nM). Do not append units.

QUERY: Give the measured IC50 of `COCCn1cc(C(=O)Nc2nc3c(OC)ncc(-c4cnn(C)c4)c3s2)cn1` .
RESULT: 30

Continuing:
QUERY: Give the measured IC50 of `COCCn1cc(C(=O)Nc2nc3c(OC)ncc(N4CCOCC4)c3s2)cn1` .
RESULT: 130

====

- Test system: human A3 receptor (Homo sapiens, UniProt P0DMS8)
- Experimental details: cAMP (HTRF) functional assay, recombinant CHO cells expressing human A3 receptor, forskolin + agonist IB-MECA
pIC50: −log10 of the molar value.
Measurement name: pIC50

QUERY: Give the measured pIC50 of COc1ncc(-c2ccccc2)c2sc(NC(=O)c3ccc(C(=O)NCCN(C)C)cc3)nc12 [compound 230] .
RESULT: > 6.00

QUERY: Give the measured pIC50 of COCc1ccc(C(=O)Nc2nc3c(OC)ncc(N4CCOCC4)c3s2)cc1 [compound 3] .
RESULT: > 6.00

QUERY: Give the measured pIC50 of COc1ncc(-c2ccccc2)c2sc(NC(=O)N3CC[C@@]4(CCCOC4)C3)nc12 [compound 204] .
RESULT: < 6.00

QUERY: Give the measured pIC50 of COc1ncc(-c2cnn(C)c2)c2sc(NC(=O)c3cnc(C)s3)nc12 [compound 131] .
RESULT: < 6.00
